System: HeLa Kyoto;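 note: synchronized HeLa Kyoto cells, proteins quantified by TMT10plex mass spectrometry, three biological replicates, mitosis taken 0.5 h after nocodazole release, G1/S directly after double thymidine block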
Assay: thermal stability score vs G1/S (z-score of summed log2 fold changes over temperatures); higher = more thermally stable than in G1/S
Details: cell cycle stage: early G1 (4.5 h after nocodazole release)
Experimental Endpoint: thermal stability score
Form field (numeric): enter value without unit.

Given MAAQSAPKVVLKSTTKMSLNERFTNMLKNKQPTPVNIRASMQQQQQLASARNRRLAQQMENRPSVQAALKLKQSLKQRLGKSNIQARLGRPIGALARGAIGGRGLPIIQRGLPRGGLRGGRATRTLLRGGMSLRGQNLLRGGRAVAPRMGLRRGGVRGRGGPGRGGLGRGAMGRGGIGGRGRGMIGRGRGGFGGRGRGRGRGRGALARPVLTKEQLDNQLDAYMSKTKGHLDAELDAYMAQTDPETND [CHTOP] , report its thermal stability score on HeLa Kyoto.
-2.91

Given MSLYPSLEDLKVDKVIQAQTAFSANPANPAILSEASAPIPHDGNLYPRLYPELSQYMGLSLNEEEIRANVAVVSGAPLQGQLVARPSSINYMVAPVTGNDVGIRRAEIKQGIREVILCKDQDGKIGLRLKSIDNGIFVQLVQANSPASLVGLRFGDQVLQINGENCAGWSSDKAHKVLKQAFGEKITMTIRDRPFERTITMHKDSTGHVGFIFKNGKITSIVKDSSAARNGLLTEHNICEINGQNVIGLKDSQIADILSTSGTVVTITIMPAFIFEHIIKRMAPSIMKSLMDHTIPEV [SDCBP] , report its thermal stability score on HeLa Kyoto.
-1.02

Given MATRSPGVVISDDEPGYDLDLFCIPNHYAEDLERVFIPHGLIMDRTERLARDVMKEMGGHHIVALCVLKGGYKFFADLLDYIKALNRNSDRSIPMTVDFIRLKSYCNDQSTGDIKVIGGDDLSTLTGKNVLIVEDIIDTGKTMQTLLSLVRQYNPKMVKVASLLVKRTPRSVGYKPDFVGFEIPDKFVVGYALDYNEYFRDLNHVCVISETGKAKYKA [HPRT1] , report its thermal stability score on HeLa Kyoto.
-0.74

Given MADRDSGSEQGGAALGSGGSLGHPGSGSGSGGGGGGGGGGGGSGGGGGGAPGGLQHETQELASKRVDIQNKRFYLDVKQNAKGRFLKIAEVGAGGNKSRLTLSMSVAVEFRDYLGDFIEHYAQLGPSQPPDLAQAQDEPRRALKSEFLVRENRKYYMDLKENQRGRFLRIRQTVNRGPGLGSTQGQTIALPAQGLIEFRDALAKLIDDYGVEEEPAELPEGTSLTVDNKRFFFDVGSNKYGVFMRVSEVKPTYRNSITVPYKVWAKFGHTFCKYSEEMKKIQEKQREKRAACEQLHQQQQQQQEETAAATLLLQGEEEGEED [PURA] , report its thermal stability score on HeLa Kyoto.
-2.25

Given MGGPRGAGWVAAGLLLGAGACYCIYRLTRGRRRGDRELGIRSSKSAGALEEGTSEGQLCGRSARPQTGGTWESQWSKTSQPEDLTDGSYDDVLNAEQLQKLLYLLESTEDPVIIERALITLGNNAAFSVNQAIIRELGGIPIVANKINHSNQSIKEKALNALNNLSVNVENQIKIKIYISQVCEDVFSGPLNSAVQLAGLTLLTNMTVTNDHQHMLHSYITDLFQVLLTGNGNTKVQVLKLLLNLSENPAMTEGLLRAQVDSSFLSLYDSHVAKEILLRVLTLFQNIKNCLKIEGHLAVQPTFTEGSLFFLLHGEECAQKIRALVDHHDAEVKEKVVTIIPKI [ARMC10] , report its thermal stability score on HeLa Kyoto.
0.978
